ASSAY_NAME: Lipophilicity
Format: physicochemical
CONDITION_SET: 2-octanol/water
PROPERTY_LABEL: logP

# STRUCTURE_SMILES_STRING, PROPERTY_LABEL, NUMERIC_READOUT
rows = [
    ("COc1ccccc1/C=N/N=C1\\C(=O)Nc2ccccc21", "logP", 2.3),
    ("O=C1Nc2ccccc2/C1=N/N=C/c1cccc([N+](=O)[O-])c1", "logP", 1.29),
]

====

TARGET: bovine serum albumin (BSA) (Bos taurus, UniProt P02769)
Sequence (P02769 25-607): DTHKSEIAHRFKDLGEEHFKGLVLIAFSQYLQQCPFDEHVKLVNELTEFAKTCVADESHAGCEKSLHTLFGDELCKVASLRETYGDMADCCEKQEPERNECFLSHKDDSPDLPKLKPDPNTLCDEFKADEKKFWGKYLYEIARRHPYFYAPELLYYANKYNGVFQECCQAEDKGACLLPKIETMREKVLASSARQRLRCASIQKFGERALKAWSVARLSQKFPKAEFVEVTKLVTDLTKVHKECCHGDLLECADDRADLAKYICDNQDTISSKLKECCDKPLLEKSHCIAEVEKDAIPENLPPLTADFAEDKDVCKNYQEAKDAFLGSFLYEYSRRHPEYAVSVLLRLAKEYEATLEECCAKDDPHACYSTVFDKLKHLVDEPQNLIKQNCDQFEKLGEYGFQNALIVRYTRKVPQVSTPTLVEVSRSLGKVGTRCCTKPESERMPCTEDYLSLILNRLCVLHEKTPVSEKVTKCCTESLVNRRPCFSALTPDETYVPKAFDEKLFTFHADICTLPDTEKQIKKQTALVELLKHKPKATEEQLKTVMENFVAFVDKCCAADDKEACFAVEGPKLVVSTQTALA
ASSAY_NAME: UV-Vis titration with BSA
pKd: −log10 of the molar value.
Catalogue of compounds with associated pKd
PROPERTY_LABEL: pKd

# STRUCTURE_SMILES_STRING, PROPERTY_LABEL, NUMERIC_READOUT
rows = [
    ("COc1ccccc1/C=N/N=C1\\C(=O)Nc2ccccc21", "pKd", 3.87),
    ("O=C1Nc2ccccc2/C1=N/N=C/c1cccc([N+](=O)[O-])c1", "pKd", 3.82),
]
